molecular target: E35D↑G↑S mutant HIV-1 subtype C protease (Human immunodeficiency virus type 1 group M subtype C, UniProt Q994Q3, D118E/E93D/I94G/INS93GS); test: biochemical; settings: mutant versus wild type
Label Y when Ki ratio is strictly below 300; otherwise label N.

>  <Chemical string>
CC(C)(C)NC(=O)[C@@H]1CN(Cc2cccnc2)CCN1C[C@@H](O)C[C@@H](Cc1ccccc1)C(=O)N[C@H]1c2ccccc2C[C@H]1O

>  <Assigned category>
Y

$$$$
>  <Chemical string>
CC(C)(C)NC(=O)[C@@H]1C[C@@H]2CCCC[C@@H]2CN1C[C@@H](O)[C@H](Cc1ccccc1)NC(=O)[C@H](CC(N)=O)NC(=O)c1ccc2ccccc2n1

>  <Assigned category>
Y

$$$$
>  <Chemical string>
COC(=O)N[C@H](C(=O)N[C@@H](Cc1ccccc1)[C@@H](O)CN(Cc1ccc(-c2ccccn2)cc1)NC(=O)[C@@H](NC(=O)OC)C(C)(C)C)C(C)(C)C

>  <Assigned category>
N

$$$$
>  <Chemical string>
Cc1c(O)cccc1C(=O)N[C@@H](CSc1ccccc1)[C@H](O)CN1C[C@H]2CCCC[C@H]2C[C@H]1C(=O)NC(C)(C)C

>  <Assigned category>
N

$$$$
>  <Chemical string>
CC(C)CN(C[C@@H](O)[C@H](Cc1ccccc1)NC(=O)O[C@H]1CCOC1)S(=O)(=O)c1ccc(N)cc1

>  <Assigned category>
Y

$$$$
>  <Chemical string>
Cc1cccc(C)c1OCC(=O)N[C@@H](Cc1ccccc1)[C@@H](O)C[C@H](Cc1ccccc1)NC(=O)[C@H](C(C)C)N1CCCNC1=O

>  <Assigned category>
Y

$$$$
>  <Chemical string>
CC(C)CN(C[C@@H](O)[C@H](Cc1ccccc1)NC(=O)O[C@H]1CO[C@H]2OCC[C@H]21)S(=O)(=O)c1ccc(N)cc1

>  <Assigned category>
N

$$$$
